# experimental_details: Human HepG2 cell viability assay in 384 well format
# Assay type: toxicity, cell-based
# Parameters: dose 125 nL, time 70.5 hour; concentration not given beside the values
# test_parameters: HepG2 cells, read-out: Inhibition
endpoint: cytotoxicity at 70.5 h (%)
Give the number; % is assumed, so skip it.

CN(CC1CCCN1C)c1nccc(C2CCCC2)n1 (configuration not stated) = 6.3
COc1c(CNC(C)C(=O)NC2CCCC2)c(C(C)C)nn1C (configuration not stated) = -6.92
CCOC(=O)Cn1ccc(NC(=O)Cc2ccccc2F)n1 = -18.1
O=C(NCC1CCCO1)c1nc2c(s1)CCCN2C(=O)C1CC1 (configuration not stated) = -9.75
c1cncc(CN2CCn3c(Cn4cncn4)cnc3C2)c1 = -7.44

Ask | Fill in: cytotoxicity at 70.5 h of OC1(CNCc2noc(Cc3ccccc3)n2)CNCCOC1 (configuration not stated) is ___
Reply | -4.33

Ask | Fill in: cytotoxicity at 70.5 h of CCN1CCN(C(=O)C(C)SC)CC1 (configuration not stated) is ___
Reply | -6.96

* * *

Each entry below lists one item and its recorded cytotoxicity at 70.5 h value.
# experimental_details: Human HepG2 cell viability assay in 384 well format
# Format: toxicity, cell-based
# Set-up: dose 125 nL, time 70.5 hour; concentration not given beside the values
# test_parameters: HepG2 cells, read-out: Inhibition
Give the number; % is assumed, so skip it.

OCc1csc(N2CCCN(Cc3ccc(F)cc3)CC2)n1 = 2.55
COc1ccc(Nc2nc3c(C)nn(C)c3c(=O)n2C)c(C)c1 = 0.529
Cc1nnc(N2CCCC3(CN(c4ccccn4)CCO3)C2)o1 (stereo not given) = 1.16
CN1CCN(c2ccc(F)cc2C(N)=O)CC1 = -12.1

Next item in the queue.
Ask | Fill in: cytotoxicity at 70.5 h of `Cc1nc(-c2ccc(F)c(F)c2)cc(C2CCNCC2)n1` is ___
Reply | -2.44

* * *

Each entry below lists one item and its recorded cytotoxicity at 70.5 h value.
# experimental_details: Human HepG2 cell viability assay in 384 well format
# Assay type: toxicity, cell-based
# Set-up: dose 125 nL, time 70.5 hour; concentration not given beside the values
# test_parameters: HepG2 cells, read-out: Inhibition
Give the number; % is assumed, so skip it.

CC(=O)NCc1noc2c1CN(CCN1CCCC1)CC2 = -8.27
Cc1ncc(CNCC2CCC(C(N)=O)CC2)n1-c1ccccc1 (stereo not given) = 11.9
Cc1cc(F)ccc1CN1CCC(O)(CN2CCCCC2)C1 (stereo not given) = -1.38
CC(Cn1cccn1)n1cnc2cccc(Cl)c2c1=O (stereo not given) = 7.81

Next item in the queue.
Ask | Fill in: cytotoxicity at 70.5 h of `Cc1ccccc1CN1CCN(C(=O)CN2CCOC2=O)CC1` is ___
Reply | -6.85

* * *

Each entry below lists one item and its recorded cytotoxicity at 70.5 h value.
# experimental_details: Human HepG2 cell viability assay in 384 well format
# Type: toxicity, cell-based
# Design: dose 125 nL, time 70.5 hour; concentration not given beside the values
# test_parameters: HepG2 cells, read-out: Inhibition
Give the number; % is assumed, so skip it.

CC(CNC(=O)N1CCC(CO)CC1)Cc1cccs1 (stereo not given) = -3.99
O=S(=O)(c1ccccc1)N1C[C@@H]2CCCCN(Cc3cccs3)[C@@H]2C1 = -17.2
c1ccc(-n2cc(CNCC3CCCN3c3cccnn3)nn2)cc1 (stereo not given) = -1.58
Fc1ccc(CNC2CCN(CCc3ccncc3)CC2)cc1F = -3.84

Next item in the queue.
Ask | Fill in: cytotoxicity at 70.5 h of `CC(C)Cc1noc(CN2CCN(CCOc3ccc(Cl)cc3)CC2)n1` is ___
Reply | -10.1

* * *

# experimental_details: Human HepG2 cell viability assay in 384 well format
# Format: toxicity, cell-based
# Set-up: dose 125 nL, time 70.5 hour; concentration not given beside the values
# test_parameters: HepG2 cells, read-out: Inhibition
endpoint: cytotoxicity at 70.5 h (%)
Give the number; % is assumed, so skip it.

Observe how each entry below is paired with its result.
CN(C)S(=O)(=O)c1ccc(=O)n(CC2CCCCO2)c1 (configuration not stated) = -12.9
CCc1noc(C)c1C(=O)NCCCC(CC)(CC)C1OCCO1 = -5.2
CC(C)[C@H](N)C(=O)N1CCCC(C2=Nc3ccccc3S(=O)(=O)N2)C1 (some centres not stated) = -9.78
N#Cc1ccc(S(=O)(=O)N2CC(CC(=O)O)c3ccccc32)cc1 (configuration not stated) = -3.42

Next item in the queue.
Ask | Fill in: cytotoxicity at 70.5 h of `O=C(CN1CC(c2nc(C3CC3)no2)C1)N1CCOCC1` is ___
Reply | -17.5

* * *

# experimental_details: Human HepG2 cell viability assay in 384 well format
# Format: toxicity, cell-based
# Set-up: dose 125 nL, time 70.5 hour; concentration not given beside the values
# test_parameters: HepG2 cells, read-out: Inhibition
Each entry below lists one item and its recorded cytotoxicity at 70.5 h value.
Lab note: write values as number then unit, every time.

Observe how each entry below is paired with its result.
CC(C)N(C(=O)CCc1ccco1)C1CCOCC1 = -9.28%
Cc1cccc2nc(C(=O)N3CCC(Nc4cccnn4)CC3)cn12 = -21.3%
CNC(=O)NC(=O)CCSc1ccccc1C = -0.594%
COc1ccc(N2CCCN(CC(=O)N3CCNC(=O)C3)CC2)cc1 = -8.51%
CCOCC1CN(C(=O)CC2=CCCCC2)Cc2nnn(C)c21 (centres undefined) = -12.8%
Cn1cncc1CN1CCCC1c1cncc(Oc2ccc(F)cc2)n1 (centres undefined) = -10.5%
O=c1cc(CN2C[C@H]3CC[C@@H]2CN(Cc2ccccc2)C3)[nH]c(=O)[nH]1 = 2.22%
CC(=O)N1CCN(CC=C(C)C)CC1 = -6.01%

Ask | Fill in: cytotoxicity at 70.5 h of `O=S1(=O)NCC2(CCNCC2)COc2ccccc21` is ___
Reply | -2.63%

Ask | Fill in: cytotoxicity at 70.5 h of `CN(Cc1nc(-c2cccnc2)no1)C(=O)c1cnc2n1CCCC2` is ___
Reply | -6.12%

Ask | Fill in: cytotoxicity at 70.5 h of CCN(CC)CC1CN(Cc2ccc(C)s2)Cc2nccn2C1 (centres undefined) is ___
Reply | -7.85%

Ask | Fill in: cytotoxicity at 70.5 h of Cc1nc(Nc2nnc(C)s2)cc(C2CCCN2c2ccncc2)n1 (centres undefined) is ___
Reply | -5.11%

Ask | Fill in: cytotoxicity at 70.5 h of `CCCn1c(C)c(CC(=O)N(C)CCO)c2c1CC(C)(C)CC2=O` is ___
Reply | 26.2%

Ask | Fill in: cytotoxicity at 70.5 h of `Cc1nc(C)c(CC(=O)Nc2nnc(C3CC3)s2)c(=O)[nH]1` is ___
Reply | -7.66%

Ask | Fill in: cytotoxicity at 70.5 h of CC(NCC(=O)N1CCc2sccc2C1)c1ccccc1F (centres undefined) is ___
Reply | -15.8%

Ask | Fill in: cytotoxicity at 70.5 h of `Cc1nn(C)c(N2CCOCC2)c1CNCc1ccnn1C` is ___
Reply | -9.28%

Ask | Fill in: cytotoxicity at 70.5 h of `Cc1cc(C)n(-c2cncc(N3CCC(C(=O)N(C)C)CC3)n2)n1` is ___
Reply | 11.2%

Ask | Fill in: cytotoxicity at 70.5 h of COc1ccc(C2(NC(=O)C3CC(=O)N(C)C3)CCCC2)cc1 (centres undefined) is ___
Reply | 20.4%

Ask | Fill in: cytotoxicity at 70.5 h of CCc1cc(NC(CCO)c2ccc(OC)cc2)n2nccc2n1 (centres undefined) is ___
Reply | -0.73%

* * *

# experimental_details: Human HepG2 cell viability assay in 384 well format
# Format: toxicity, cell-based
# Set-up: dose 125 nL, time 70.5 hour; concentration not given beside the values
# test_parameters: HepG2 cells, read-out: Inhibition
Each entry below lists one item and its recorded cytotoxicity at 70.5 h value.

CCC(=O)c1ccc(OCC(=O)NC(C)c2nnc(C)[nH]2)cc1 (stereo not given) = -3.79%
O=C(CCCn1cnnn1)N1CCC(c2ccncc2)CC1 = 22.6%
CCCOCC(=O)Nc1ncc(I)cc1C = 4.92%
COc1ccccc1OCc1cc(C(=O)N2CCC(NC(C)=O)C2)n[nH]1 (stereo not given) = 2.49%
COCc1ccc(C(=O)N2CCN(CC=C(C)C)[C@@H]3CS(=O)(=O)C[C@@H]32)o1 = -0.472%

Ask | Fill in: cytotoxicity at 70.5 h of Cc1cc(NC(=O)CCN(CC2CCOC2)C2CC2)no1 (stereo not given) is ___
Reply | -9.35%

Ask | Fill in: cytotoxicity at 70.5 h of `CCCOCC(=O)N1CCc2c(cccc2S(=O)(=O)N2CCOCC2)C1` is ___
Reply | 19.4%

Ask | Fill in: cytotoxicity at 70.5 h of `Cc1nc(CN2CCCN(CCOc3ccc(C#N)cc3)CC2)no1` is ___
Reply | -0.262%

Ask | Fill in: cytotoxicity at 70.5 h of `COCCN1CCN(C)C2(CCN(C(=O)c3ccnnc3)CC2)C1=O` is ___
Reply | -0.603%

Ask | Fill in: cytotoxicity at 70.5 h of c1ccc(CCCN2CCCC(Nc3cnc4ccccc4n3)C2)cc1 (stereo not given) is ___
Reply | -2.78%

Hey, just so you know, these numbers are from ChEMBL document CHEMBL3507680.
